System: THP-1 viability, CellTiter-Glo luminescence, 72 h
test name: PubChem AID 2252
pEC50: −log10 of the molar value.

# compound, pEC50
data = [
    ("N#C/C(=C\\c1ccc(O)c(O)c1)C(=O)c1ccc(O)c(O)c1", 4.41),
    ("CCCCOc1ccc(CSC(=N)N)cc1Cl", 4.96),
    ("Oc1cccc(Nc2nc(NCC3CCCO3)c3ccccc3n2)c1 (centres undefined)", 5.87),
    ("CCc1ccc(-c2nn(-c3ccccc3)cc2CSC(=N)N)cc1", 5.29),
    ("CN1CCN(C2Cc3cc(Cl)ccc3Sc3cc(F)ccc32)CC1 (centres undefined)", 5.09),
    ("OCCN1CCN(C2Cc3cc(Cl)ccc3Sc3ccc(Cl)cc32)CC1 (centres undefined) (tested in a mixture with another compound)", 5.11),
    ("Clc1c(OCCCn2ccnc2)ccc2ccccc12", 4.39),
    ("CC(C)N1CSC(=S)N(Cc2ccccc2)C1", 4.89),
    ("Cc1[nH]c2ccccc2c1/C=N/Nc1nc2ccccc2[nH]1", 5.82),
    ("CCCCCc1ccc(OCCCC[n+]2ccccc2)c(CCCCC)c1", 5.83),
    ("CCOC(=O)c1c(C)sc2c1N(C(C)=O)c1cc(Cl)ccc1S2", 4.36),
    ("Oc1ccc(CN2CCCc3ccccc32)c2cccnc12", 5.48),
    ("O=C(Nc1ccc(Cl)cc1)Nc1ccc2c(c1)N1CCN=C1S2", 4.86),
    ("Cc1cc(C)c2sc(N(CCCN(C)C)C(=O)COc3ccc(Cl)cc3)nc2c1", 4.75),
    ("CCCCCCCCCCOC(=O)Cn1c(COc2ccc(C)cc2)[n+](C)c2ccccc21", 5.63),
    ("O=C(N/N=C/c1ccc([N+](=O)[O-])o1)C(O)c1ccccc1 (centres undefined)", 4.75),
    ("CCCCC(=O)NNC(=S)NC(=O)CCC", 4.34),
    ("Cc1cc(C(C)(C)CC(C)(C)C)ccc1OCCOCC[N+](C)(C)Cc1ccccc1", 5.93),
    ("COc1ccc(Nc2cc(C)nc(NCc3ccccc3)n2)cc1", 5.32),
]

###

Test system: THP-1 viability, CellTiter-Glo luminescence, 72 h
test name: PubChem AID 2252
pEC50: −log10 of the molar value.
Entries and their pEC50 values follow.

# molecule, target entity, pEC50
records = [
    ("O=C(N/N=C\\c1c[nH]c2ccccc12)c1ccc(O)cc1", "THP-1 viability, CellTiter-Glo luminescence, 72 h", "> 7.00"),
    ("CN1CCN(c2ccccc2NC(=O)c2cc3c(s2)-c2ccccc2OC3)CC1", "THP-1 viability, CellTiter-Glo luminescence, 72 h", 5.01),
    ("Clc1ccc2c(c1)C(N1CCNCC1)Cc1ccccc1S2 (stereo not given)", "THP-1 viability, CellTiter-Glo luminescence, 72 h", 5.13),
    ("Cc1ccc(CNCCC2=CCCCC2)cc1", "THP-1 viability, CellTiter-Glo luminescence, 72 h", 4.57),
    ("CCCCCCC[N+](CC)(CC)CCCCc1ccc(Cl)cc1", "THP-1 viability, CellTiter-Glo luminescence, 72 h", 5.49),
    ("Oc1ccccc1-c1cc(C(F)(F)C(F)F)[nH]n1", "THP-1 viability, CellTiter-Glo luminescence, 72 h", 4.33),
    ("COc1ccc(Nc2c3c(nc4ccccc24)CCC3)cc1", "THP-1 viability, CellTiter-Glo luminescence, 72 h", 5.47),
    ("CC(=O)NCc1ccc(C(=O)CCl)cc1", "THP-1 viability, CellTiter-Glo luminescence, 72 h", 4.48),
    ("CCSc1ccc2c(c1)N(CCCN1CCN(C)CC1)c1ccccc1S2", "THP-1 viability, CellTiter-Glo luminescence, 72 h", 4.89),
    ("CN(C)CCCNc1cc(C(C)(C)C)nc2c(-c3ccc(Cl)cc3)cnn12", "THP-1 viability, CellTiter-Glo luminescence, 72 h", 5.10),
    ("O=C(Cn1cc[n+](CC(=O)c2ccc(Cl)cc2Cl)c1)c1ccc(Cl)cc1Cl", "THP-1 viability, CellTiter-Glo luminescence, 72 h", 4.79),
    ("C1=C(CCNc2ncnc3c2[nH]c2ccccc23)CCCC1", "THP-1 viability, CellTiter-Glo luminescence, 72 h", 5.26),
    ("Cn1cc(C(=O)N/N=C/C(Br)=C/c2ccccc2)ccc1=O", "THP-1 viability, CellTiter-Glo luminescence, 72 h", 4.84),
    ("O=c1[nH]c(-c2ccccn2)nc(C(F)(F)F)c1Br", "THP-1 viability, CellTiter-Glo luminescence, 72 h", 4.94),
    ("c1ccc2cc(CSCc3nc4ccccc4[nH]3)ccc2c1", "THP-1 viability, CellTiter-Glo luminescence, 72 h", 4.31),
]

###

Tested on: THP-1 viability, CellTiter-Glo luminescence, 72 h
test name: PubChem AID 2252
Entries and their EC50 values follow.

# compound, target entity, EC50
rows = [
    ("O=C(Cc1ccccc1)N/N=C/c1cc(Br)cc(Cl)c1O", "THP-1 viability, CellTiter-Glo luminescence, 72 h", "3.7 µM"),
    ("O=[N+]([O-])c1cc(CN2CCN(c3cccc(C(F)(F)F)c3)CC2)c2cccnc2c1O", "THP-1 viability, CellTiter-Glo luminescence, 72 h", "1.74 µM"),
    ("O=C(/C=C/c1ccccc1Cl)c1ccccc(=O)c1O", "THP-1 viability, CellTiter-Glo luminescence, 72 h", "12.9 µM"),
    ("Cc1cc(C)c2c(N)c3ccccc3nc2n1", "THP-1 viability, CellTiter-Glo luminescence, 72 h", "12.4 µM"),
    ("CCn1cc(C(=O)O)c(=O)c2cc(F)c(N3CCN(C(=S)NC(=O)c4cccc(C)c4)CC3)cc21", "THP-1 viability, CellTiter-Glo luminescence, 72 h", "< 0.1 µM"),
    ("CCc1ccc2c(c1)C1(NN=C(c3ccc(C)cc3)S1)C(=O)N2 (stereo not given)", "THP-1 viability, CellTiter-Glo luminescence, 72 h", "9.42 µM"),
    ("O=C1C(SCCO)=C(SCCO)C(=O)c2ccccc21", "THP-1 viability, CellTiter-Glo luminescence, 72 h", "3.62 µM"),
    ("COC(=O)C1C(O)C(C)C(O)C(C)/C=C\\C=C(/C)C(=O)Nc2c(C)c(OC(C)=O)c3c(c2O)C(=O)C(C)=C2OCOC(=C23)/C(C)=C/C(C)(O)C(O)C(C)C1O (stereo not given)", "THP-1 viability, CellTiter-Glo luminescence, 72 h", "< 0.1 µM"),
    ("O=C(Nc1ccccc1)Nc1cccc(Cl)c1", "THP-1 viability, CellTiter-Glo luminescence, 72 h", "43.7 µM"),
    ("Cc1ccc(Cn2c(=N)n(CC(O)COc3ccccc3)c3ccccc32)cc1 (stereo not given)", "THP-1 viability, CellTiter-Glo luminescence, 72 h", "6.08 µM"),
    ("O=C(CC(=O)c1c(F)cccc1Cl)c1ccccc1O", "THP-1 viability, CellTiter-Glo luminescence, 72 h", "27.4 µM"),
    ("N=c1c2c(-c3ccccc3)c(-c3ccccc3)n(Cc3ccco3)c2ncn1CCCn1ccnc1", "THP-1 viability, CellTiter-Glo luminescence, 72 h", "7.71 µM"),
    ("O=C1C=C(c2ccc(Cl)cc2)C(=O)N1Nc1ccccc1", "THP-1 viability, CellTiter-Glo luminescence, 72 h", "5.96 µM"),
    ("C=CCc1cc(Cl)ccc1OCCCNCCO", "THP-1 viability, CellTiter-Glo luminescence, 72 h", "43.1 µM"),
    ("O=S(=O)(Nc1c(S(=O)(=O)c2ccccc2)c2nc3ccccc3nc2n1C1CCCCC1)c1ccccc1", "THP-1 viability, CellTiter-Glo luminescence, 72 h", "12.3 µM"),
    ("Cc1ccc(N=Cc2cc(Br)cc(Cl)c2O)cc1", "THP-1 viability, CellTiter-Glo luminescence, 72 h", "49.5 µM"),
    ("O=C(Cn1nc(CNc2ccc(Cl)cc2)[n+]2c1CCCCC2)c1ccc(Br)cc1", "THP-1 viability, CellTiter-Glo luminescence, 72 h", "11.2 µM"),
    ("CCc1ccc(CNCc2ccc(OCC(O)CN(C)Cc3ccccc3)cc2)nc1 (stereo not given)", "THP-1 viability, CellTiter-Glo luminescence, 72 h", "23 µM"),
    ("CN1CCN(C(c2ccc(C(F)(F)F)cc2)c2ccc3cccnc3c2O)CC1 (stereo not given)", "THP-1 viability, CellTiter-Glo luminescence, 72 h", "1.36 µM"),
    ("O=C(CC(=O)c1cc(Cl)ccc1O)c1ccccc1", "THP-1 viability, CellTiter-Glo luminescence, 72 h", "12.3 µM"),
]
